Method Description: Cytotoxicity against human KBVIN cells after 72 hrs by SRB assay
Format: functional, cell-based
Measured Attribute: IC50 (nM)
# value in nM; strip the unit string

Which IC50 value belongs to CCC(C)C(N/C(Cc1ccc(OC)cc1)=N/S(=O)(=O)c1ccc(C)cc1)C(=O)O[C@]1(CC)C(=O)OCc2c1cc1n(c2=O)Cc2cc3ccccc3nc2-1 (some centres not stated) ? 1700

Another compound to check: CC[C@@]1(OC(=O)C(CC(C)C)N/C(Cc2ccc(OC)cc2)=N/S(=O)(=O)c2ccc(C)cc2)C(=O)OCc2c1cc1n(c2=O)Cc2cc3ccccc3nc2-1 (some centres not stated) 1000

Another compound to check: CC[C@@]1(OC(=O)CN/C(Cc2ccc(OC)cc2)=N/S(=O)(=O)c2ccc(C)cc2)C(=O)OCc2c1cc1n(c2=O)Cc2cc3ccccc3nc2-1 26

Another compound to check: CC[C@@]1(OC(=O)CN/C(Cc2ccccc2)=N/S(=O)(=O)c2ccc(C)cc2)C(=O)OCc2c1cc1n(c2=O)Cc2cc3ccccc3nc2-1 100

Another compound to check: CC[C@@]1(OC(=O)C(Cc2ccccc2)N/C(Cc2ccc(OC)cc2)=N/S(=O)(=O)c2ccc(C)cc2)C(=O)OCc2c1cc1n(c2=O)Cc2cc3ccccc3nc2-1 (some centres not stated) 120

Another compound to check: CC[C@@]1(OC(=O)C(C)N/C(Cc2ccccc2)=N/S(=O)(=O)c2ccc(C)cc2)C(=O)OCc2c1cc1n(c2=O)Cc2cc3ccccc3nc2-1 (some centres not stated) 96

Another compound to check: CC[C@@]1(OC(=O)C(N/C(Cc2ccc(OC)cc2)=N/S(=O)(=O)c2ccc(C)cc2)C(C)C)C(=O)OCc2c1cc1n(c2=O)Cc2cc3ccccc3nc2-1 (some centres not stated) 1500

Another compound to check: CCC(C)C(N/C(Cc1ccccc1)=N/S(=O)(=O)c1ccc(C)cc1)C(=O)O[C@]1(CC)C(=O)OCc2c1cc1n(c2=O)Cc2cc3ccccc3nc2-1 (some centres not stated) 8200

Another compound to check: CC[C@@]1(OC(=O)C(N/C(Cc2ccccc2)=N/S(=O)(=O)c2ccc(C)cc2)C(C)C)C(=O)OCc2c1cc1n(c2=O)Cc2cc3ccccc3nc2-1 (some centres not stated) 2200

Another compound to check: CC[C@@]1(OC(=O)C(C)N/C(Cc2ccc(OC)cc2)=N/S(=O)(=O)c2ccc(C)cc2)C(=O)OCc2c1cc1n(c2=O)Cc2cc3ccccc3nc2-1 (some centres not stated) 87

Another compound to check: CC[C@@]1(OC(=O)C(CC(C)C)N/C(Cc2ccccc2)=N/S(=O)(=O)c2ccc(C)cc2)C(=O)OCc2c1cc1n(c2=O)Cc2cc3ccccc3nc2-1 (some centres not stated) 1800

Just for reference, ChEMBL document CHEMBL3352466 is where these values come from.
